Exercise: for every item that follows, state its recorded Potency.
Assay: Quantitative High-Throughput drug screen in 47 multiple myeloma cell lines against the NCATS MIPE library collection: KMS26_JCRB cell viability assay (AID 1918975); note: potency is the fitted concentration of half-maximal effect; nearly all actives have a fitted effect of over 45% in size
Settings: KMS26 myeloma cells viability, CellTiter-Glo ATP, 48 h; series mostly up to 45.8 µM
Results filed as inconclusive are left out. Active and inactive are the calls of the source. Calls come from the whole dose curve; as a rule, active = well fitted cell-killing curve with a large enough effect; inconclusive = small, poorly fitted or top-dose-only effect, or effect the other way; inactive = no such curve, though single readings can be large or run the other way.

- COMPOUND: "Cn1cc(-c2[nH]c3cc(NC(=O)[C@H](N)C4CCCCC4)cc4c3c2C=NNC4=O)cn1"
  Potency: "8.33 µM (active)"
- COMPOUND: "Cc1c(CN2CCN(S(C)(=O)=O)CC2)sc2c(N3CCOCC3)nc(-c3cnc(N)nc3)nc12"
  Potency: "0.187 µM (active)"

Provide Potency for all items below, preserving their order.
1. Cc1cn2c(-c3cn[nH]c3)cnc2c(Nc2ccc(C(=O)N3CCNCC3)cc2F)n1
2. C[C@@H]1CN(CC(=O)Nc2ccc3c(c2)Cc2cccc(-c4cc(=O)cc(N5CCOCC5)o4)c2S3)C[C@H](C)O1
3. CC(=O)c1c(C)c2cnc(Nc3ccc(N4CCNCC4)cn3)nc2n(C2CCCC2)c1=O
4. O=c1[nH]nc(Sc2ncc([N+](=O)[O-])s2)n1-c1ccc2c(c1)OCCO2
5. C=C1C(=CC=C2CCC[C@]3(C)[C@@H]([C@H](C)C=C[C@H](C)C(C)C)CC[C@@H]23)C[C@@H](O)C[C@@H]1O

[out]
16.6 µM (active)
20.9 µM (active)
18.7 µM (active)
1.48 µM (active)
2.35 µM (active)

I would be grateful if you could provide Potency for each of the following entries.
1. CN[C@H]1CCc2cc(OC)c(OC)c(OC)c2-c2ccc(OC)c(=O)cc21
2. COC(=O)[C@]12CCC(C)(C)C[C@@H]1[C@@H]1C(=O)C=C3[C@@]4(C)C=C(C#N)C(=O)C(C)(C)[C@@H]4CC[C@@]3(C)[C@]1(C)CC2
3. CNC(=O)c1ccccc1Nc1nc(Nc2ccc(N3CCOCC3)cc2OC)ncc1Cl
4. Cc1cc(Nc2cc(N3CCN(C)CC3)nc(Sc3ccc(NC(=O)C4CC4)cc3)n2)n[nH]1
5. C=CC(=O)Nc1cccc(Oc2nc(Nc3ccc(N4CCN(C)CC4)cc3)ncc2Cl)c1
6. Cc1coc2c1C(=O)C(=O)c1c-2ccc2c1CCCC2(C)C
7. COc1cc(-c2nn(C3CCC(N4CCN(C(C)=O)CC4)CC3)c3ncnc(N)c23)ccc1NC(=O)c1cc2ccccc2n1C (stereo not drawn)
8. NC1(Cc2ccc(Cl)cc2)CCN(c2ncnc3[nH]ccc23)CC1

[out]
0.0148 µM (active)
0.209 µM (active)
0.418 µM (active)
14.8 µM (active)
26.4 µM (active)
2.96 µM (active)
14.8 µM (active)
6.62 µM (active)

Working through the 3 compounds below one at a time, give Potency for each.
1. CC(=O)Nc1nc(C)c(-c2ccc(Cl)c(S(=O)(=O)NCCO)c2)s1
2. C=CC(=O)Nc1cc2c(Nc3ccc(F)c(Cl)c3)ncnc2cc1C#CC(C)(C)N1CCN(C)CC1
3. CCOC(=O)C1=C(C)NC2=C(C(=O)CC(C)(C)C2)C1c1ccc(-c2ccccc2)cc1 (stereo not drawn)

[out]
1: 7.43 µM (active); 2: 1.66 µM (active); 3: 16.6 µM (active)
